- target: human histamine H3 receptor (Homo sapiens)
- Sequence (Q9Y5N1 whole entry): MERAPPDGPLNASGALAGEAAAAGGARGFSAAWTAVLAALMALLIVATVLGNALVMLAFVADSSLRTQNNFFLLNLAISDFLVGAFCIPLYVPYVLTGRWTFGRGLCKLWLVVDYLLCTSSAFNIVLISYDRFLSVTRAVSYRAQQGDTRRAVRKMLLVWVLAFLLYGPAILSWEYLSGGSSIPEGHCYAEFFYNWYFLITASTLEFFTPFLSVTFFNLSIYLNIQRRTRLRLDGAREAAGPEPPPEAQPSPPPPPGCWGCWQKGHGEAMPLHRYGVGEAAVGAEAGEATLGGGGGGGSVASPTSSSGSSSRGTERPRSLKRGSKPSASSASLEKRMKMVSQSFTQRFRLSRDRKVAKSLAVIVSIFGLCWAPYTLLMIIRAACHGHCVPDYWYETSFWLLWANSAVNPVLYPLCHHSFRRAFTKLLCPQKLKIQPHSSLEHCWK
- test_description: H3 GTPγS assay (SPA method), histamine H3 in vitro assay
- Format: biochemical
- condition_label: membranes of cells expressing human H3; GTPγ[35S] SPA; antagonist testing with reference agonist at EC80 (30 nM); in one embodiment HCl salts tested; read-out: Potency (functional potency as indicated by IC50)
I'd appreciate it if you could supply IC50 values for the items below.

Record excerpt, results attached:
c1cn2cc(-c3ccc4c(c3)nc3n4CCN4CCCC4C3)ccc2n1 (centres unmarked) [Compound 74]
< 10 nM
c1cn2cc(-c3ccc4c(c3)nc3n4CCN4CCCC[C@H]4C3)ccc2n1
< 100 nM
c1ccc2c(c1)CCN(Cc1ccc3c(c1)nc1n3CCN3CCCC3C1)C2 (centres unmarked)
< 10 nM
N#Cc1ccc(-c2ccc3c(c2)nc2n3CC3CCC(C2)N3C2CCC2)cc1F (centres unmarked)
< 10 nM

Kindly give each listed record's IC50.
1. c1cn2cc(-c3ccc4c(c3)nc3n4CCCN4CCCCC4C3)ccc2n1 (single isomer, unassigned) [Compound 70]
2. c1cnc(-c2ccc3c(c2)nc2n3C3CCC2CN(C2CCC2)C3)cn1 (centres unmarked)
3. Clc1ccc2c(c1)nc1n2CC2CCC(C1)N2C1CCC1 (centres unmarked)
4. c1cn2cc(-c3ccc4c(c3)nc3n4CCCN4CCCC4C3)ccc2n1 (single isomer, unassigned) [Compound 82]
5. c1cc2c(cc1CN1CCOCC1)nc1n2CCN2CCCCC2C1 (single isomer, unassigned) [Compound 51]
6. c1cn2cc(-c3ccc4c(c3)nc3n4CCCN4CCCC4C3)ccc2n1 (single isomer, unassigned) [Compound 83]
7. N#Cc1ccc(-c2ccc3c(c2)nc2n3CC3CCC(C2)N3C2CCC2)cc1 (single isomer, unassigned) [Compound 45]
8. N#Cc1ccc(-c2ccc3c(c2)nc2n3CCCN(C3CCC3)CC2)cc1

A:
1: < 10 nM; 2: < 100 nM; 3: < 1000 nM; 4: < 10 nM; 5: < 100 nM; 6: < 10 nM; 7: < 1000 nM; 8: < 10 nM
